- SYSTEM_TESTED: FGFR3 (h) (Homo sapiens)
- Sequence (P22607 23-806): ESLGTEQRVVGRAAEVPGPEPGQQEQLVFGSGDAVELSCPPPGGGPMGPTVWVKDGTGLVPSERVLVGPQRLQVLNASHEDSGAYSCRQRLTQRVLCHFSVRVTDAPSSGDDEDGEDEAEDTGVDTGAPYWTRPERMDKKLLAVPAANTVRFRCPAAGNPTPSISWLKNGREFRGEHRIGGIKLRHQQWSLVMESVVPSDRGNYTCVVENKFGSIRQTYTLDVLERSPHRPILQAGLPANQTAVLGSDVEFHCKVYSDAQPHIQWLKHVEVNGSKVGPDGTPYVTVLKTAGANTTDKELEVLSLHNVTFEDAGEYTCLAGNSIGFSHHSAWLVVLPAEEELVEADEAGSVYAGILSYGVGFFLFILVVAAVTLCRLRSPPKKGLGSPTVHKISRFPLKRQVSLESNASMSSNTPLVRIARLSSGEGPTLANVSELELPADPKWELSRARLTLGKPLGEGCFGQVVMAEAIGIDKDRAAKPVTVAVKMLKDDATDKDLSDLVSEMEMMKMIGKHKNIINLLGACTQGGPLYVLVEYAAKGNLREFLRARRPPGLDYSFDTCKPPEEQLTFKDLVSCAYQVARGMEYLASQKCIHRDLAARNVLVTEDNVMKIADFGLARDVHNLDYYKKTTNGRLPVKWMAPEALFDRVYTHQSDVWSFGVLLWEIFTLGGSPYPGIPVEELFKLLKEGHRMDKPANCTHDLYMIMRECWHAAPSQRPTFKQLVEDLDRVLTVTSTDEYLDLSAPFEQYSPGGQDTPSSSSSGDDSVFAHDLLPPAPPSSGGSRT
- MEASUREMENT_DESCRIPTION: FGFR3 (enzymatic assay), TR-FRET
- Assay type: biochemical
- TEST_CONTEXT: average values if tested multiple times, read-out: FGFR 3 pIC50 (converted)
Reported IC50 values for the following compounds.
ASSAY_ENDPOINT: IC50 (nM)

[
  {
    "COMPOUND": "COc1cc(OC)c(F)c(N(c2ccc3ncc(-c4cnn(C)c4)nc3n2)C(CO)COC(C)C)c1 (single isomer, unassigned) [Compound 76]",
    "ASSAY_ENDPOINT": "IC50",
    "RECORDED_VALUE": 105
  },
  {
    "COMPOUND": "COc1cc(OC)c(F)c(N(CCCN2CCCC2=O)c2ccc3ncc(-c4cnn(C)c4)nc3n2)c1F [Compound 56]",
    "ASSAY_ENDPOINT": "IC50",
    "RECORDED_VALUE": 2.75
  },
  {
    "COMPOUND": "COc1cc(OC)c(F)c(N(Cc2ncccn2)c2ccc3ncc(-c4cnn(C)c4)nc3n2)c1F [Compound 11]",
    "ASSAY_ENDPOINT": "IC50",
    "RECORDED_VALUE": 7.08
  },
  {
    "COMPOUND": "COc1cc(OC)c(F)c(/N=c2\\ccc3ncc(-c4cnn(C)c4)nc3n2CC2CCC(=O)N2)c1F (stereo not shown) [Compound 193]",
    "ASSAY_ENDPOINT": "IC50",
    "RECORDED_VALUE": 0.417
  }
]
